Listed here: items and their measured growth.
Test system: NCI-H23 lung
Assay: NCI-60 one-dose screen, 48 h (100 = growth as untreated, 0 = no growth, -100 = all killed)
Conditions: 10 µM unless noted
The panel holds about 83,000 compounds, 20% with a hit somewhere; the sample as a whole holds those more often.
Report the value in % with no unit label.

Known results for compounds:
[
  {
    "Compound": "COc1ccc(-c2ccnc(SCc3cc4cc(Cl)ccc4[nH]c3=O)n2)cc1",
    "growth / %": 57.8
  },
  {
    "Compound": "OCNc1ccc(-n2cnc3cc(-c4ccc(O)cc4)ccc32)cc1C(F)(F)F",
    "growth / %": 27
  },
  {
    "Compound": "O=C1CCCc2cc(OCC(=O)N3CCCCC3)ccc2N1",
    "growth / %": 105
  },
  {
    "Compound": "O=C(O)c1cccc(-c2ccc(/C=N/NC(=O)c3[nH]c4ccc(Br)cc4c3-c3ccccc3)o2)c1",
    "growth / %": 86.5
  },
  {
    "Compound": "COc1cc(/C=C2\\C(=N)N=C(SCc3nc4ccccc4[nH]3)NC2=O)ccc1O",
    "growth / %": 96.8
  },
  {
    "Compound": "COc1ccc(C(=O)/C=C/c2ccc3ccccc3c2)cc1S(N)(=O)=O",
    "growth / %": -23.7
  },
  {
    "Compound": "COc1c(F)ccc(C(=O)Nc2ccc3nc(NC(=O)C4CCCN(S(=O)(=O)c5ccc(C#N)cc5)C4)sc3c2)c1F (stereo not given)",
    "growth / %": 88.9
  },
  {
    "Compound": "CCCCSc1nc(NCCc2c[nH]c3ccccc23)c(C#N)c(-c2ccccc2)n1",
    "growth / %": 15.8
  },
  {
    "Compound": "COc1ccc(-c2ccnc(SCc3cc4ccccc4[nH]c3=O)n2)cc1OC",
    "growth / %": 15.6
  }
]

query: Query: growth; subject: `CCOC(=O)c1ccc(Nc2nc(NN)nc(-c3ccc(OC)cc3)c2C#N)cc1`
result: 115
